Parameter: Ratio IC50. Scope: all listed entries.
Organism: Homo sapiens
Test: Selectivity ratio of IC50 for human recombinant PI3Kbeta to IC50 for human full length PI3Kdelta catalytic subunit/p85alpha
Answer with a bare number; do not write a unit.

Here's what some known entries look like.
C[C@H](Nc1nc(N)nc(N)c1C#N)c1nc2cccc(Cl)c2c(=O)n1-c1cc(Cl)cc(C(F)F)c1    220
C#Cc1c(N)ncnc1N[C@@H](C)c1nc2cccc(Cl)c2c(=O)n1-c1ccccc1    490
C[C@H](Nc1nc(N)nc(N)c1C#N)c1nc2ccc(F)c(Cl)c2c(=O)n1-c1cc(F)cc(F)c1    470

Now turn to the next compound.
Entry `COc1cccc(-n2c([C@H](C)Nc3nc(N)nc(N)c3C#N)nc3cccc(Cl)c3c2=O)c1` needs its Ratio IC50 filled in; supply it.
330

---

Target: PI3-kinase p110-delta/p85-alpha (Homo sapiens, UniProt O00329)
Sequence (P27986 whole entry): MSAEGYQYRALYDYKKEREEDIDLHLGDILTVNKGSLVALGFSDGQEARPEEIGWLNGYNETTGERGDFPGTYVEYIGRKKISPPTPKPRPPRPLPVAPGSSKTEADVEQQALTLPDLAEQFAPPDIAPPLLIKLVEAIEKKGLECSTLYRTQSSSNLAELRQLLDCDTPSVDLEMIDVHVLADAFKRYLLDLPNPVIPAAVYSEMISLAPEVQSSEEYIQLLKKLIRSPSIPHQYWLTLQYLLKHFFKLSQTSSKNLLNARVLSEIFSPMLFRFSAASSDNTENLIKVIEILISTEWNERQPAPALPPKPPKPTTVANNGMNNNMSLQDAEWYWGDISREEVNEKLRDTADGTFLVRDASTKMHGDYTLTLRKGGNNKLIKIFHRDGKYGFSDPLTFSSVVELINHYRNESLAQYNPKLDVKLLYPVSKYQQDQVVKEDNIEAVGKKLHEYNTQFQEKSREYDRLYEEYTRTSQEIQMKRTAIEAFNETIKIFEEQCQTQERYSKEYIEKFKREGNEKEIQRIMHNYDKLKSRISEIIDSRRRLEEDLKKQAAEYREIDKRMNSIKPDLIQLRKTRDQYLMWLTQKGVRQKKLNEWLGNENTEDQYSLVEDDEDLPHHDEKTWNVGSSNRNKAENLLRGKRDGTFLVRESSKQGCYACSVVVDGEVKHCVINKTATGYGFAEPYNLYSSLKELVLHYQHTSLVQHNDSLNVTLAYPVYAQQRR
Sequence (O00329 whole entry): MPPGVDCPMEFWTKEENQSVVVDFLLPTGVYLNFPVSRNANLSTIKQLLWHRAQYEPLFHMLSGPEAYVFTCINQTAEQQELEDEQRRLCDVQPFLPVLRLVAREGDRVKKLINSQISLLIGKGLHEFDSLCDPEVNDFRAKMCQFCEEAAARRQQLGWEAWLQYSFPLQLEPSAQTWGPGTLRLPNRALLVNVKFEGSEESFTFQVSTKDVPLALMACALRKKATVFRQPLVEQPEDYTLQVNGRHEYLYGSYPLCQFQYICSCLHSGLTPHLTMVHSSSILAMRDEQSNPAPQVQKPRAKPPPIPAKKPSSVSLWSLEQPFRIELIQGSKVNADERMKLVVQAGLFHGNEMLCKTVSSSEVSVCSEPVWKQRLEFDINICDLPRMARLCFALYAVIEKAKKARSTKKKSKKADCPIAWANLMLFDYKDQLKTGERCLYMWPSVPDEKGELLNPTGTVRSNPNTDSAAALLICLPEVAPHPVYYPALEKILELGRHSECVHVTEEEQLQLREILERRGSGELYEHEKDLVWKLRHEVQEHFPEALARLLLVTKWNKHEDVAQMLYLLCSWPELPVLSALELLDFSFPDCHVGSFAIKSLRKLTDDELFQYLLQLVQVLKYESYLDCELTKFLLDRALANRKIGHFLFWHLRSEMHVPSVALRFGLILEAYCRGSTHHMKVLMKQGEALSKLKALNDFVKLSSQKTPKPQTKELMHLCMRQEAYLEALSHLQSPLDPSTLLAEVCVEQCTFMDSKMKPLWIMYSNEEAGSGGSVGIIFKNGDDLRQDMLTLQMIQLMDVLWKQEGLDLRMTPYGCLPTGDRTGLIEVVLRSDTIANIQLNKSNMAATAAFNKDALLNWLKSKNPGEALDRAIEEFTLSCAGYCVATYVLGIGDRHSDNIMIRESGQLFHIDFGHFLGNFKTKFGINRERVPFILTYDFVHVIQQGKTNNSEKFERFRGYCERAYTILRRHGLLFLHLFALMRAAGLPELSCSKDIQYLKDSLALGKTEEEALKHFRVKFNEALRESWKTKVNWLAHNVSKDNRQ
Assay: Inhibition human full length PI3Kdelta catalytic subunit/p85alpha assessed as formation of PIP3 after 30 mins by europium labeled GRP-based TR-FRET assay
ASSAY_ENDPOINT: pIC50
pIC50 (log units): -log10 of the concentration in mol/L.

Here's what some known entries look like.
C[C@H](Nc1nc(N)nc(N)c1C#N)c1nc2cccc(Cl)c2c(=O)n1-c1cc(Cl)cc(C(F)F)c1    8.82
C[C@H](Nc1nc(N)nc(N)c1C#N)c1nc2ccccc2c(=O)n1-c1cc(F)cc(F)c1    7.82
C[C@H](Nc1nc(N)nc(N)c1C#N)c1nc2ccc(F)cc2c(=O)n1-c1cc(F)cc(F)c1    8.32

Now turn to the next molecule.
Entry `C[C@H](Nc1nc(N)nc(N)c1C#N)c1nc2cccc(Cl)c2c(=O)n1-c1cccc(F)c1` needs its pIC50 filled in; supply it.
9.82

---

Test: Half life in Lewis rat at 5 mg/kg, po administered through gavage measured after 24 hrs by LC/MS/MS analysis
Type: ADME, organism-based
Settings: in vivo
ASSAY_ENDPOINT: half-life (h)
Write it as a number; the unit h goes unstated.

Entry `C[C@H](Nc1nc(N)nc(N)c1C#N)c1nc2cccc(F)c2c(=O)n1-c1cc(F)cc(F)c1` needs its half-life filled in; supply it.
3.2

---

Experiment: AUCinfinity in Lewis rat at 1 mg/kg, iv administered via infusion over 30 mins or at 5 mg/kg, po administered via gavage by LC/MS/MS analysis
Type: ADME, organism-based
Settings: in vivo
ASSAY_ENDPOINT: AUC(0-inf) (µM·h)
Write it as a number; the unit µM·h goes unstated.

Entry `C[C@H](Nc1nc(N)nc(N)c1C#N)c1nc2cccc(F)c2c(=O)n1-c1cc(F)cc(F)c1` needs its AUC(0-inf) filled in; supply it.
17

---

Species on record: Homo sapiens
Test: Selectivity ratio of IC50 for human full length PI3Kgamma to IC50 for human full length PI3Kdelta catalytic subunit/p85alpha
ASSAY_ENDPOINT: Ratio IC50
Answer with a bare number; do not write a unit.

Entry `C[C@H](Nc1ncnc(N)c1C(F)(F)F)c1nc2cccc(Cl)c2c(=O)n1-c1ccccc1` needs its Ratio IC50 filled in; supply it.
560

Entry `C[C@H](Nc1ncnc(N)c1C#N)c1nc2cccc(Cl)c2c(=O)n1-c1ccccc1` needs its Ratio IC50 filled in; supply it.
680

Entry `Cc1nc(N)nc(N[C@@H](C)c2nc3cccc(Cl)c3c(=O)n2-c2ccccc2)c1C#N` needs its Ratio IC50 filled in; supply it.
40

Entry `C[C@H](Nc1nc(N)ncc1C#N)c1nc2cccc(Cl)c2c(=O)n1-c1ccccc1` needs its Ratio IC50 filled in; supply it.
15

Entry `C[C@H](Nc1ncncc1C#N)c1nc2cccc(Cl)c2c(=O)n1-c1ccccc1` needs its Ratio IC50 filled in; supply it.
370
